measurement-notes: melting temperature; fluorescence melt of hairpins on a sequencing array, two-state fit, raised by 9.35 °C to match UV melts
test-parameters: sodium 0.088 M
The label depends only on Tm: yes (1) if it is at least 50 °C, no (0) if it is smaller.

GGCCGAACGAAAGTTGCC (((..(((....)))))); no (0)
GTCTGTGAAAACAGAC ((((((....)))))); yes (1)
GCGGCGGTCCGC ((((....)))); yes (1)
GCAGTCGAAAGACGTTGC ((((((....)))..))); no (0)
GCAGCCGGAAACGACTGC ((((.((....)).)))); yes (1)
GCTAGTACGAAAGTAAGC (((..(((....)))))); no (0)
GGCGTCCGAAAGGAAGCC (((.(((....))).))); yes (1)
CGGATGCGGAAACGCCCG (((..(((....)))))); no (0)
GCATGGCGAAAGCCCTGC (((.(((....))).))); yes (1)

Could you now look at the following sequence, please?
Query: Assess whether reported Tm for GGCGCTTCGAAAGAAGCC (((..(((....)))))) sits at 50 °C or higher.
Result: no (0)
